Experiment: NCI Yeast Anticancer Drug Screen. Data for the mec2-1 strain (AID 157)
Conditions: S. cerevisiae mec2-1 strain, at 50.0 µM (retest, dose inferred, filed as 5.0)
Description: Growth inhibition of yeast strains with defined genetic alterations is measured as a screen for potential anti-cancer activity. Selected strains with alterations in DNA damage repair or cell cycle control were exposed to compounds and growth inhibition was measured relative to vehicle treated controls. The strain used in this assay is mec2-1
This is part of a sample that, as a whole, favours compounds with a hit. Of some 79,000 tested, about 15% had one in any assay. Calls of active or inactive are those of the source. Cut-off read from the data, not from the text of the source: active = growth inhibition above about 70%; inactive = the rest.
Can you answer with just one of these options? label 1 = active, label 0 = inactive

Some solved cases for reference:
• COc1cc(C(=O)/C=C/c2ccccc2O)ccc1O = label 1
• O=C(c1ccc(Cl)cc1Cl)C(Cl)Cl = label 1
• Cc1nn(-c2cc(Cl)ccc2[N+](=O)[O-])c(C)c1Cl = label 0

Shift focus to the following entry.
(Q) Returns: the outcome recorded for CCCCCCCCC/C=C/C=C/C(=O)NCC(=O)NC1C(O)C(O)C(Nc2ncnc3nc[nH]c23)OC1C(O)CO (centres undefined) in this assay.
(A) label 0

---

Assay: NCI Yeast Anticancer Drug Screen. Data for the sgs1 strain (AID 173);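 note: 0% = growth of vehicle-only control cultures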
Conditions: S. cerevisiae sgs1 mutant, at 3.7 µM, stronger effect = higher value
Procedure: Growth inhibition of yeast strains with defined genetic alterations is measured as a screen for potential anti-cancer activity. Selected strains with alterations in DNA damage repair or cell cycle control were exposed to compounds and growth inhibition was measured relative to vehicle treated controls. The strain used in this assay is sgs1
About 79,000 compounds went through this panel and 15% of them were active in at least one assay; those are over-represented in the sample as a whole.
I'd appreciate it if you could supply growth inhibition values for the items below.
Answers are plain numbers, in %.

Look over these answered cases.
• CCN(CC)CCC(=O)c1ccc(Oc2ccc(F)cc2)cc1 = -2
• COc1cc(C2SCC(=O)N2c2ccc(-c3ccc(-n4c(-c5ccccc5)nc5ccccc5c4=O)cc3)cc2)cc(OC)c1OC (centres undefined) = -1
• O=[N+]([O-])CC(SCc1ccccc1)c1ccc2c(c1)OCO2 (centres undefined) = 54

// below: growth inhibition requested for another compound
(Q) For OC(c1ccc(F)cc1)(c1ccc(F)cc1)C1CC1 , write its growth inhibition.
(A) -43

---

test: NCI Yeast Anticancer Drug Screen. Data for the sgs1 strain (AID 173);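 note: 0% = growth of vehicle-only control cultures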; settings: S. cerevisiae sgs1 mutant, at 11.0 µM, stronger effect = higher value
This is part of a sample that, as a whole, favours compounds with a hit. Of some 79,000 tested, about 15% had one in any assay.
// class 0 strictly below 20% in growth inhibition; class 1 otherwise

Please review the entries below; each comes with its answer.
- Oc1ccc(NCn2c(=S)sc3ccccc32)cc1: class 0
- O=C1OC(CCl)CN1/N=C/c1ccc([N+](=O)[O-])o1 (stereo not drawn): class 1
- O=C1C(Nc2ccccc2)=C(Oc2ccccc2)C(=O)c2ccccc21: class 0
- Oc1cccc2c(Cl)ccnc12: class 1
- Cc1cc(O)cc(O)c1N=Nc1ccc([N+](=O)[O-])cc1: class 0

(Q) Does growth inhibition meet or surpass 20% for O=C1c2ccccc2C(=O)c2cc(CBr)ccc21 ?
(A) class 1

(Q) Does the molecule O=[N+]([O-])c1cccc([N+](=O)[O-])c1S(=O)(=O)c1ccccc1 have recorded growth inhibition that is 20% or more?
(A) class 1

(Q) Record O=C([O][Sn]([O]C(=O)c1ccccc1)([c]1ccccc1)[c]1ccccc1)c1ccccc1 ; criterion: growth inhibition no lower than 20%. Met?
(A) class 1

All figures here come from PubChem BioAssay (NCI).
